Hey, just so you know, these numbers are from PubChem BioAssay AID1963839.

- Tested on: 817829-284-R-J1-PDC complex spheroid viability
- PROTOCOL_DETAILS: Anticancer human tumor 817829-284-R-J1-PDC patient-derived colon adenocarcinoma cell line growth inhibition [POLQ]
- CONDITION: curve of first compound; second compound 0.316 µM
PROPERTY_MEASURED: IC50

Known IC50 results, listed for orientation:
COc1cccc2c1C(=O)c1c(O)c3c(c(O)c1C2=O)CC(O)(C(=O)CO)CC3OC1CC(N)C(O)C(C)O1 (stereo not given) + Nc1ccc(C#CCN(C(=O)Cc2ncc(C(F)(F)F)cc2C(F)(F)F)c2ccc(F)cc2)nn1: < 0.0316 µM
COc1cc2cc(C(=O)CCC(=O)O)sc2cc1OC + COC1C(OC(N)=O)C(O)C(Oc2ccc3c(O)c(NC(=O)c4ccc(O)c(CC=C(C)C)c4)c(=O)oc3c2C)OC1(C)C: > 10 µM
CC1COCCN1c1cc(-c2ccnn2C)c2ccnc(-c3ccn[nH]3)c2n1 (stereo not given) + Cc1cccc(N(C)C(=O)C2C(O)CCN2c2nc(C)cc(C(F)(F)F)c2C#N)c1: < 0.0316 µM

Asked: What value of IC50 has been recorded for this entry: C#Cc1c(F)ccc2cc(O)cc(-c3ncc4c(N5CC6CCC(C5)N6)nc(OCC56CCCN5CC(F)C6)nc4c3F)c12 (stereo not given) + Nc1ccc(C#CCN(C(=O)Cc2ncc(C(F)(F)F)cc2C(F)(F)F)c2ccc(F)cc2)nn1
Given back: > 10 µM

Asked: Could you tell me which IC50 is on file for C=CC(=O)N1CCN(c2nc(=O)n(-c3c(C)ccnc3C(C)C)c3nc(-c4c(O)cccc4F)c(F)cc23)C(C)C1 (stereo not given) + Nc1ccc(C#CCN(C(=O)Cc2ncc(C(F)(F)F)cc2C(F)(F)F)c2ccc(F)cc2)nn1 ?
Given back: > 10 µM

----------
- Test system: 817829-284-R-J1-PDC complex spheroid viability
- PROTOCOL_DETAILS: Anticancer human tumor 817829-284-R-J1-PDC cell line growth inhibition [POLQ]; active = viability on the fitted dose curve at most 10% of control; inactive = the rest;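 further: spheroids exposed to compounds for 7 days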
- CONDITION: second compound 1 µM; first compound 10 µM
Outcomes you can answer with include only these: active, inactive

Asked: Field: outcome | Entry: O=C(Nc1ccc(O)c(NS(=O)(=O)c2ccc(F)cc2)c1)c1ccc(-c2ccccc2)cc1 + Cc1cccc(N(C)C(=O)C2C(O)CCN2c2nc(C)cc(C(F)(F)F)c2C#N)c1
Given back: inactive

Asked: Hi, do you know how COc1cccc2c1C(=O)c1c(O)c3c(c(O)c1C2=O)CC(O)(C(=O)CO)CC3OC1CC(N)C(O)C(C)O1 (centres undefined) + COC1C(OC(N)=O)C(O)C(Oc2ccc3c(O)c(NC(=O)c4ccc(O)c(CC=C(C)C)c4)c(=O)oc3c2C)OC1(C)C came out in this test?
Given back: active

Asked: What did this assay record as the result for CC1COCCN1c1cc(-c2ccnn2C)c2ccnc(-c3ccn[nH]3)c2n1 (centres undefined) + Nc1ccc(C#CCN(C(=O)Cc2ncc(C(F)(F)F)cc2C(F)(F)F)c2ccc(F)cc2)nn1 ?
Given back: active

Asked: Any idea what this test logged for CCc1cc2c(N3CCc4c(cc(Cn5ccnc5)cc4-c4cn(C)nc4C(F)(F)F)C3=O)ccnc2c(OC)n1 + COC1C(OC(N)=O)C(O)C(Oc2ccc3c(O)c(NC(=O)c4ccc(O)c(CC=C(C)C)c4)c(=O)oc3c2C)OC1(C)C ?
Given back: inactive

Asked: Any idea what this test logged for COc1cc(C2c3cc4c(cc3C(OC3OC5COC(C)OC5C(O)C3O)C3COC(=O)C23)OCO4)cc(OC)c1O (centres undefined) + Nc1ccc(C#CCN(C(=O)Cc2ncc(C(F)(F)F)cc2C(F)(F)F)c2ccc(F)cc2)nn1 ?
Given back: inactive

Asked: Which outcome was assigned to CC(C)n1c(=O)n(C)c2cnc3cc(F)c(-c4ccc(OCCCN5CCCCC5)nc4)cc3c21 + Cc1cccc(N(C)C(=O)C2C(O)CCN2c2nc(C)cc(C(F)(F)F)c2C#N)c1 in this test?
Given back: inactive

Asked: For C=CC(=O)N1CCN(c2nc(=O)n(-c3c(C)ccnc3C(C)C)c3nc(-c4c(O)cccc4F)c(F)cc23)C(C)C1 (centres undefined) + COC1C(OC(N)=O)C(O)C(Oc2ccc3c(O)c(NC(=O)c4ccc(O)c(CC=C(C)C)c4)c(=O)oc3c2C)OC1(C)C , what call appears in the results of this test?
Given back: inactive

Asked: Record request — test call for CNCc1ccc(-c2[nH]c3cc(F)cc4c3c2CCNC4=O)cc1 + Cc1cccc(N(C)C(=O)C2C(O)CCN2c2nc(C)cc(C(F)(F)F)c2C#N)c1
Given back: inactive

Asked: Hi, sorry to bother you, what did the test record for O=c1[nH]cc(F)c(=O)[nH]1 + Nc1ccc(C#CCN(C(=O)Cc2ncc(C(F)(F)F)cc2C(F)(F)F)c2ccc(F)cc2)nn1 ?
Given back: inactive

----------
- System: 817829-284-R-J1-PDC complex spheroid viability
- PROTOCOL_DETAILS: Anticancer human tumor 817829-284-R-J1-PDC cell line growth inhibition [POLQ]; active = viability on the fitted dose curve at most 10% of control; inactive = the rest;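 further: spheroids exposed to compounds for 7 days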
- CONDITION: second compound 0.316 µM; first compound 0.316 µM
Hello, when you answer, please use one of the following outcomes: active, inactive

Below are worked cases with known answers.
COc1ccc([C@@H](O)c2cc(-c3ncnc4cc(N5CCOCC5)ccc34)c(F)cc2Cl)nn1 + Cc1cccc(N(C)C(=O)C2C(O)CCN2c2nc(C)cc(C(F)(F)F)c2C#N)c1: inactive
CC1COCCN1c1cc(C2(S(C)(=N)=O)CC2)nc(-c2ccnc3[nH]ccc23)n1 (stereo not drawn) + Cc1cccc(N(C)C(=O)C2C(O)CCN2c2nc(C)cc(C(F)(F)F)c2C#N)c1: inactive
Nc1ccn(C2OC(CO)C(O)C2(F)F)c(=O)n1 (stereo not drawn) + Cc1cccc(N(C)C(=O)C2C(O)CCN2c2nc(C)cc(C(F)(F)F)c2C#N)c1: active
C=CCn1c(=O)c2cnc(Nc3ccc(N4CCN(C)CC4)cc3)nc2n1-c1cccc(C(C)(C)O)n1 + Cc1cccc(N(C)C(=O)C2C(O)CCN2c2nc(C)cc(C(F)(F)F)c2C#N)c1: inactive

Asked: Hi, sorry to bother you, what did the test record for COc1ccc([C@@H](O)c2cc(-c3ncnc4cc(N5CCOCC5)ccc34)c(F)cc2Cl)nn1 + Nc1ccc(C#CCN(C(=O)Cc2ncc(C(F)(F)F)cc2C(F)(F)F)c2ccc(F)cc2)nn1 ?
Given back: inactive

Asked: What did the test return for CNCc1ccc(-c2[nH]c3cc(F)cc4c3c2CCNC4=O)cc1 + Cc1cccc(N(C)C(=O)C2C(O)CCN2c2nc(C)cc(C(F)(F)F)c2C#N)c1 ?
Given back: inactive

Asked: How was CC1COCCN1c1cc(-c2ccnn2C)c2ccnc(-c3ccn[nH]3)c2n1 (stereo not drawn) + Nc1ccc(C#CCN(C(=O)Cc2ncc(C(F)(F)F)cc2C(F)(F)F)c2ccc(F)cc2)nn1 classified in this test?
Given back: active

Asked: Can you look up the reported call for COc1cccc2c1C(=O)c1c(O)c3c(c(O)c1C2=O)CC(O)(C(=O)CO)CC3OC1CC(N)C(O)C(C)O1 (stereo not drawn) + Nc1ccc(C#CCN(C(=O)Cc2ncc(C(F)(F)F)cc2C(F)(F)F)c2ccc(F)cc2)nn1 for me?
Given back: active

----------
Collected IC50 values appear next to each entry.
- System: 817829-284-R-J1-PDC complex spheroid viability
- PROTOCOL_DETAILS: Anticancer human tumor 817829-284-R-J1-PDC cell line growth inhibition [POLQ];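 further: spheroids exposed to compounds for 7 days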
- CONDITION: curve of first compound; second compound 0.316 µM

Some entries whose results are on file:
CC1COCCN1c1cc(C2(O)CC3CCC(C2)O3)c2cnn(-c3ccn[nH]3)c2n1 (stereo not drawn) + COC1C(OC(N)=O)C(O)C(Oc2ccc3c(O)c(NC(=O)c4ccc(O)c(CC=C(C)C)c4)c(=O)oc3c2C)OC1(C)C: < 0.0316 µM
CNCc1ccc(-c2[nH]c3cc(F)cc4c3c2CCNC4=O)cc1 + COC1C(OC(N)=O)C(O)C(Oc2ccc3c(O)c(NC(=O)c4ccc(O)c(CC=C(C)C)c4)c(=O)oc3c2C)OC1(C)C: > 10 µM

Could you now consider this next molecule?
Asked: Query: IC50; subject: COc1cc2cc(C(=O)CCC(=O)O)sc2cc1OC + Nc1ccc(C#CCN(C(=O)Cc2ncc(C(F)(F)F)cc2C(F)(F)F)c2ccc(F)cc2)nn1
Given back: > 10 µM

----------
- Tested on: 817829-284-R-J1-PDC complex spheroid viability
- PROTOCOL_DETAILS: Anticancer human tumor 817829-284-R-J1-PDC cell line growth inhibition [POLQ]; active = viability on the fitted dose curve at most 10% of control; inactive = the rest;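 further: spheroids exposed to compounds for 7 days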
- CONDITION: second compound 0.1 µM; first compound 0.316 µM
Pick one: YES = active, NO = inactive

Below, 4 compounds whose answers are already recorded.
CC1COCCN1c1cc(C2(S(C)(=N)=O)CC2)nc(-c2ccnc3[nH]ccc23)n1 (stereo not drawn) + Nc1ccc(C#CCN(C(=O)Cc2ncc(C(F)(F)F)cc2C(F)(F)F)c2ccc(F)cc2)nn1: NO
CC1COCCN1c1cc(C2(O)CC3CCC(C2)O3)c2cnn(-c3ccn[nH]3)c2n1 (stereo not drawn) + Nc1ccc(C#CCN(C(=O)Cc2ncc(C(F)(F)F)cc2C(F)(F)F)c2ccc(F)cc2)nn1: YES
C#Cc1c(F)ccc2cc(O)cc(-c3ncc4c(N5CC6CCC(C5)N6)nc(OCC56CCCN5CC(F)C6)nc4c3F)c12 (stereo not drawn) + Cc1cccc(N(C)C(=O)C2C(O)CCN2c2nc(C)cc(C(F)(F)F)c2C#N)c1: NO
C=CC(=O)N1CCN(c2nc(=O)n(-c3c(C)ccnc3C(C)C)c3nc(-c4c(O)cccc4F)c(F)cc23)C(C)C1 (stereo not drawn) + COC1C(OC(N)=O)C(O)C(Oc2ccc3c(O)c(NC(=O)c4ccc(O)c(CC=C(C)C)c4)c(=O)oc3c2C)OC1(C)C: NO

Asked: Any idea what this test logged for CCc1cc2c(N3CCc4c(cc(Cn5ccnc5)cc4-c4cn(C)nc4C(F)(F)F)C3=O)cc(C)nc2c(OC)n1 + Nc1ccc(C#CCN(C(=O)Cc2ncc(C(F)(F)F)cc2C(F)(F)F)c2ccc(F)cc2)nn1 ?
Given back: NO

Asked: Query: recorded result category for Nc1ccn(C2OC(CO)C(O)C2(F)F)c(=O)n1 (stereo not drawn) + COC1C(OC(N)=O)C(O)C(Oc2ccc3c(O)c(NC(=O)c4ccc(O)c(CC=C(C)C)c4)c(=O)oc3c2C)OC1(C)C in this test
Given back: YES

Asked: Hi, do you know how O=C(c1cc(Cc2n[nH]c(=O)c3ccccc23)ccc1F)N1CCN(C(=O)C2CC2)CC1 + Cc1cccc(N(C)C(=O)C2C(O)CCN2c2nc(C)cc(C(F)(F)F)c2C#N)c1 came out in this test?
Given back: NO

Asked: Test call for this compound, please: CCc1cc2c(N3CCc4c(cc(Cn5ccnc5)cc4-c4cn(C)nc4C(F)(F)F)C3=O)ccnc2c(OC)n1 + Nc1ccc(C#CCN(C(=O)Cc2ncc(C(F)(F)F)cc2C(F)(F)F)c2ccc(F)cc2)nn1
Given back: NO
